Target: T1, HTRA4, P83105
T1 sequence (P83105 378-476, limits assumed, looked up): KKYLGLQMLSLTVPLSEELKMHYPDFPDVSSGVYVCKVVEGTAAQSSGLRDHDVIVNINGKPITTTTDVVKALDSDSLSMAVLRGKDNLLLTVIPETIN
Test: holdup assay
Design: key: below the threshold = too weak to quantify, mostly under pKd 3.1 to 4
Settings: plain residues with an end cap or a label only (N-terminal biotin on a linker: ado-ado)
Think of 4 as a floor: if pKd stands on it or above, it is Condition met; beneath it, Condition not met.

State whether the measured pKd reaches 4, counting equality as reaching it, for TACCHSETVV [TGFA, P01135]
Condition not met

More entries:
Could you please find out whether YRLAQESGLV [ABCC6, O95255] has pKd that meets 4 or exceeds it?
Condition not met

Check the entry VDSTVKVWTC [TRAF7, Q6Q0C0] : does pKd equal or exceed 4?
Condition met

Does the reported pKd for KSGKQTMLVV [TRIM29, Q14134;Q14134-2] fall at or above the 4 mark?
Condition met
